Origin of values: the supplement of paper PMC5579334

Readings of % inhibition for the listed molecules
- Test system: S1507-2
- test-description: % inhibition of CellTiter-Glo viability at highest tested concentration (72 h), relative to DMSO and benzethonium chloride controls; higher = more inhibition
Number in %, nothing else.

molecule="Nc1cccc2c1CN(C1CCC(=O)NC1=O)C2=O (stereo unspecified) [Lenalidomide] (max concentration tested 10000 nM)" meas_value=10.8
molecule="O=C(O)CNC(=O)c1c(O)c2ccccc2n(Cc2ccccc2)c1=O [IOX-2] (max concentration tested 50000 nM)" meas_value=26.3
molecule="Cc1c(CN2CCN(C(=O)[C@H](C)O)CC2)sc2c(N3CCOCC3)nc(-c3cnc(N)nc3)nc12 [GDC-0980] (max concentration tested 10000 nM)" meas_value=79.4

Request body: readout % inhibition, system S1507-2, query CN(C)C(=N)NC(=N)N [Metformin aq] (max concentration tested 100000 nM) . Return the value. 6.36

// same read-out, input: N#Cc1ccc(COC[C@H]2O[C@@H](n3c(NCc4ccc(Cl)c(Cl)c4)nc4c(N)ncnc43)[C@H](O)[C@@H]2O)cc1 (max concentration tested 10000 nM) 7.48

// query: O=C(/C=C/c1cccnc1)NCCCCC1CCN(C(=O)c2ccccc2)CC1 [Daporinad] (max concentration tested 1000 nM) 87.9

###

- Tested on: YST-1
- test-description: % inhibition of CellTiter-Glo viability at highest tested concentration (72 h), relative to DMSO and benzethonium chloride controls; higher = more inhibition
property-label: % inhibition (%)
Express the result in % but write the number alone.

Example cases with answers are listed next.
molecule="COc1cc2/c(=N/c3ccc(Br)cc3F)nc[nH]c2cc1OCC1CCN(C)CC1 [Vandetanib] (max concentration tested 1000 nM)" property_label="% inhibition" meas_value=2.38
molecule="O=C1NC(=O)/C(=C/c2ccc3nccc(-c4ccncc4)c3c2)S1 (max concentration tested 10000 nM)" property_label="% inhibition" meas_value=86.6
molecule="COc1cc(OC)c(/C=C/S(=O)(=O)Cc2ccc(OC)c(NCC(=O)O)c2)c(OC)c1 [Rigosertib] (max concentration tested 10000 nM)" property_label="% inhibition" meas_value=79.3
molecule="CC(C)[C@H]1C(=O)N[C@@H](CCCNC(=N)N)C(=O)NCC(=O)N[C@@H](CC(=O)O)C(=O)N[C@H](Cc2ccccc2)C(=O)N1C [Cilengitide] (max concentration tested 10000 nM)" property_label="% inhibition" meas_value=-3.66
molecule="CCCCCOC(=O)Nc1nc(=O)n([C@@H]2O[C@H](C)[C@@H](O)[C@H]2O)cc1F [Capecitabine] (max concentration tested 10000 nM)" property_label="% inhibition" meas_value=-6.84

Entry Nc1ncnc2c1nc(N)n2[C@@H]1O[C@H](CO)[C@@H](O)[C@H]1O [8-amino-adenosine] (max concentration tested 50000 nM) has what % inhibition? 102

###

- System: HSC2 (primary human Schwann cells)
- test-description: drug sensitivity score (DSS, CellTox-Green cytotoxicity, 72 h) (DSS (dimensionless)); higher = more cytotoxic; extreme values may be limits of the assay
property-label: drug sensitivity score
Lab note: record just the number, no unit beside it.

molecule="Clc1ccc(Nc2nnc(Cc3ccncc3)c3ccccc23)cc1 [Vatalanib] (max concentration tested 10000 nM)" property_label="drug sensitivity score" meas_value=0

Give its drug sensitivity score value. Item: FC(F)c1nc2ccccc2n1-c1nc(N2CCOCC2)nc(N2CCOCC2)n1 [ZSTK474] (max concentration tested 10000 nM) 0.497

// same read-out, input: Cn1cncc1[C@@](N)(c1ccc(Cl)cc1)c1ccc2c(c1)c(-c1cccc(Cl)c1)cc(=O)n2C [Tipifarnib] (max concentration tested 10000 nM) 0

For C[C@@H](Oc1cc(-c2cnn(C3CCNCC3)c2)cnc1N)c1c(Cl)ccc(F)c1Cl [Crizotinib] (max concentration tested 1000 nM) then? 0

Also check CC(C)c1cc(-c2n[nH]c(=O)n2-c2ccc3c(ccn3C)c2)c(O)cc1O [Ganetespib] (max concentration tested 1000 nM) 20.9

Now consider COc1cc2c(cc1-c1c(C)noc1C)ncc1[nH]c(=O)n([C@H](C)c3ccccn3)c12 [I-BET151] (max concentration tested 10000 nM) and answer again. 0
